Values from ChEMBL document CHEMBL5308504

studySystem: Mitogen-activated protein kinase 1 (Homo sapiens)
conditionSet: Compound concentration 20.0 uM, Protein concentration 2.0 uM, Result type QC Liability
Description: Thermal Shift Assay. Domain: start/stop: M1-S360
endpoint: ΔTm
Report as: number unit

// for each compound below, give its ΔTm
1. CC(C)[C@H](CO)Nc1nc(Nc2ccc(C(=O)O)c(Cl)c2)c2ncn(C(C)C)c2n1
2. Cc1ccc(NS(=O)(=O)c2ccc3c(c2)C2C=CCC2C(c2ccc(C(=O)O)cc2)N3)cc1C (centres undefined)
3. CC1(C)CCC(CN2CCN(c3ccc(C(=O)NS(=O)(=O)c4ccc(NCC5CCOCC5)c([N+](=O)[O-])c4)c(Oc4cnc5[nH]ccc5c4)c3)CC2)=C(c2ccc(Cl)cc2)C1

["4.14 °C", "-3.84 °C", "0.48 °C"]

Quick check: ΔTm on Mitogen-activated protein kinase 1 (Homo sapiens), item CCc1ccc(-c2ncn(CC3(F)CCN(C)CC3)c2-c2ccnc3[nH]ccc23)nc1 ? 0.39 °C

----------
What ΔTm was measured for each of the following?
studySystem: Glycogen synthase kinase-3 beta (Homo sapiens) (UniProt P49841)
Sequence (P49841 whole entry, looked up): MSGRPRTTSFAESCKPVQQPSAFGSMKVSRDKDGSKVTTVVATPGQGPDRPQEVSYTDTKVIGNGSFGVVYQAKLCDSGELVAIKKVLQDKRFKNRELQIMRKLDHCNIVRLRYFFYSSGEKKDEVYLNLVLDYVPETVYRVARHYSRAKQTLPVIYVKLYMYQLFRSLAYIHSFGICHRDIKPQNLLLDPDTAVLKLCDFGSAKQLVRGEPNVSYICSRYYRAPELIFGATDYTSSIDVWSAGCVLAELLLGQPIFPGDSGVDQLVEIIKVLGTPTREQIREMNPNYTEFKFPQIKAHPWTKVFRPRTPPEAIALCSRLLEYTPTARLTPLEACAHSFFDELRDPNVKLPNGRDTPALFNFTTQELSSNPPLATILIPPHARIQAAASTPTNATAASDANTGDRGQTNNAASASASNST
conditionSet: Compound concentration 20.0 uM, Protein concentration 2.0 uM, Result type QC Liability
Description: Thermal Shift Assay. Domain: start/stop: M26-R383
Answers are plain numbers, in °C.

Data request, read-out ΔTm, for COc1cc(-c2cncc(-c3cnn(C4CCNCC4)c3)c2)cc(OC)c1OC -0.71

Form field: reported ΔTm of Cc1nc(Nc2cnn(C3CCNCC3)c2)nc2c1N(C)C(=O)c1cc3ccccc3cc1N2C -0.49

// query ΔTm value for entry Cc1cc(Cn2c(N3CC4(CNC4)C3)nc3cc(Cl)cc(N4CCN(C)CC4)c32)cc(C)c1F -1.71

Please go through the list and note ΔTm for each molecule.
1. Cc1cc(S(=O)(=O)N2CC(C)(C)c3cc(-c4ccc(C(F)(F)F)cc4)ccc32)ccc1OCC(=O)O
2. O=C1CN(c2ccccc2F)C(NCCN2CCOCC2)=C1c1nc2cc(Br)ccc2c(=O)[nH]1

1: -5.32; 2: 0.31

----------
studySystem: Tyrosine-protein kinase ABL1 (Homo sapiens) (UniProt P00519)
Sequence (P00519 whole entry): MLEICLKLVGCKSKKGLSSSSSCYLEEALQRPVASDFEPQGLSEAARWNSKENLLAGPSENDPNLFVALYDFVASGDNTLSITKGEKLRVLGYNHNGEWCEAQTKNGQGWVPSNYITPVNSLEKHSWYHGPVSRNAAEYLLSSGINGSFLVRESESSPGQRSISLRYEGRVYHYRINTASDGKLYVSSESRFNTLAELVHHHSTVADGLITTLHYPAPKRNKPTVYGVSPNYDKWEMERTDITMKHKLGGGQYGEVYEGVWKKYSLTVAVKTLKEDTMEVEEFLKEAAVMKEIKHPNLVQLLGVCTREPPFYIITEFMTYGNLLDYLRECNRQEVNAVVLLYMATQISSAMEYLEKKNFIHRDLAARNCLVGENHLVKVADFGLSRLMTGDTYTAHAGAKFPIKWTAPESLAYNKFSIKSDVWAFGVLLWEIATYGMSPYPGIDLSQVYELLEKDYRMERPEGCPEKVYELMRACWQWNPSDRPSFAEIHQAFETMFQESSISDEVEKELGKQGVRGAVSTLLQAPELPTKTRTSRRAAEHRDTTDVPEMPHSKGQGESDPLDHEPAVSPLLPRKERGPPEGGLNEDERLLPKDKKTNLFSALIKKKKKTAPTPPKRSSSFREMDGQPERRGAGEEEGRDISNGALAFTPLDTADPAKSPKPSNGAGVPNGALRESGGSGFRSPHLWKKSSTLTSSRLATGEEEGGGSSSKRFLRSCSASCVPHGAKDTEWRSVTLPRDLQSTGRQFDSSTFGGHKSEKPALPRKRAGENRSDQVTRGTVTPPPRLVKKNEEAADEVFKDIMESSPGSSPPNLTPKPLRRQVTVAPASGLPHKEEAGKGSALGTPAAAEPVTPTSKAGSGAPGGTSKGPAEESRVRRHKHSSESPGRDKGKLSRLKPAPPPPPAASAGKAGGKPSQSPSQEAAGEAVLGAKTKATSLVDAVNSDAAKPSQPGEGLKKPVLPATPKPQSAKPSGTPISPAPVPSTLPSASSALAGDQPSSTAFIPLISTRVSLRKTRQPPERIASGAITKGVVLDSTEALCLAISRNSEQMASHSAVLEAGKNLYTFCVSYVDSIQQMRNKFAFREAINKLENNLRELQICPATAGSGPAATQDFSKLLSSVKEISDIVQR
conditionSet: Compound concentration 20.0 uM, Protein concentration 2.0 uM, Result type QC Liability
Description: Thermal Shift Assay. Domain: start/stop: S229-K512
# T = ΔTm below 0.7 °C (exclusive); F = ΔTm at/above 0.7 °C

Examples with answers:
Please state whether ΔTm is below 0.7 °C for CC(=O)Oc1ccc2c(c1)[C@@]1(C)CCC[C@](C)(C(=O)OC(=O)[C@@]3(C)CCC[C@]4(C)c5cc(OC(C)=O)ccc5CC[C@@H]34)[C@@H]1CC2 T

Answer whether the molecule CN[C@@H](C)C(=O)N[C@H](C(=O)N1CCC[C@H]1C(=O)N[C@H]1c2ccccc2C[C@H]1OCC#CC#CCO[C@@H]1Cc2ccccc2[C@@H]1NC(=O)[C@@H]1CCCN1C(=O)[C@@H](NC(=O)[C@H](C)NC)C1CCCCC1)C1CCCCC1 has ΔTm strictly less than 0.7 °C T

Item O=C(Cc1ccccc1[N+](=O)[O-])Nc1ccc(-c2ccc(C(O)(C(F)(F)F)C(F)(F)F)cc2F)cc1 : ΔTm beneath 0.7 °C, strictly? T

In the record for CN1CCCN(C(=O)c2cccc(-c3ccc(/C=C4/C(=O)Nc5ccc(Cl)cc54)o3)c2)CC1 , is ΔTm less than 0.7 °C? F

Continuing:
Record COc1ccc(C(=O)N[C@H](C)c2cccc(C(=O)Nc3nc4c(s3)CN(C)CC4)c2)cc1C : is its ΔTm strictly below 0.7 °C? T

Given the entry Cn1c(Nc2c(Cl)cccc2Cl)nc2ccc3nc[nH]c(=O)c3c21 , would its reported ΔTm be below 0.7 °C? F

Item CN(C)C/C=C/C(=O)Nc1ccc(C(=O)Nc2cccc(Nc3ncc(Cl)c(-c4c[nH]c5ccccc45)n3)c2)cc1 : ΔTm beneath 0.7 °C, strictly? F

----------
studySystem: Mitogen-activated protein kinase 1 (Homo sapiens) (UniProt P28482)
Sequence (P28482 whole entry): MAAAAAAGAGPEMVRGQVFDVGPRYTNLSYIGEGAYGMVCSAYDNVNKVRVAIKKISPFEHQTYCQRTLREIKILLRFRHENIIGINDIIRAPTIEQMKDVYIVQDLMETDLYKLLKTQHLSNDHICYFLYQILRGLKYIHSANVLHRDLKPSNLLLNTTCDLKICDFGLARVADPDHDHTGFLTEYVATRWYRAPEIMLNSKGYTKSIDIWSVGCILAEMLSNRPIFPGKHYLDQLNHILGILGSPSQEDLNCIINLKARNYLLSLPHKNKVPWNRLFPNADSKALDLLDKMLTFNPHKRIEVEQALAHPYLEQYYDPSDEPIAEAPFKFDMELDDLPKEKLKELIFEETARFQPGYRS
conditionSet: Compound concentration 20.0 uM, Protein concentration 2.0 uM, Result type QC Liability
endpoint: ΔTm (°C)
Numbers only, in °C.

Worked cases, ΔTm given:
Look up ΔTm for this compound: CCS(=O)(=O)c1cc2cc(C[C@](O)(CC(C)(C)c3ccc(F)cc3C(N)=O)C(F)(F)F)[nH]c2cn1 0.36

Can you look up the measured ΔTm of COc1cc(-c2cc3ncccc3c(OC[C@H]3CNC(=O)C3)n2)cc(OC)c1OC1CCOCC1 for me? 0.16

Returns the measured ΔTm for the input compound. Input: CN(C)C/C=C/C(=O)Nc1cccc(S(=O)(=O)N2CCC(NC(=O)c3n[nH]cc3NC(=O)c3c(Cl)cc(Cl)cc3Cl)CC2)c1 1.34

Could you now look at the following compound, please?
So what does the record say about ΔTm for Cc1nc2ccccc2c(-c2ccc3c4c(ccnc24)CCO3)c1[C@H](OC(C)(C)C)C(=O)O ? 0.3

----------
studySystem: Aurora kinase A (Homo sapiens) (UniProt O14965)
Sequence (O14965 whole entry): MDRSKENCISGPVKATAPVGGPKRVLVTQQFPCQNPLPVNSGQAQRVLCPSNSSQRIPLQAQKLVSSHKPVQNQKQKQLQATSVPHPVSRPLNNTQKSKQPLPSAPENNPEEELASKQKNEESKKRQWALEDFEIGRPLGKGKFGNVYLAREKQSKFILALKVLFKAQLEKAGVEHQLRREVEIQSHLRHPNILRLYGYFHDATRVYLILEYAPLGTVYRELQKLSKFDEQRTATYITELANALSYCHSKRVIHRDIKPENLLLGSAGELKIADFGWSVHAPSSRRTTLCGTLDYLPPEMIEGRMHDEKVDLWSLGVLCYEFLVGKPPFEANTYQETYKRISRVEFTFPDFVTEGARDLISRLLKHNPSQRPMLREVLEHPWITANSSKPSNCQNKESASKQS
conditionSet: Compound concentration 20.0 uM, Protein concentration 2.0 uM, Result type QC Liability
Description: Thermal Shift Assay. Domain: start/stop: E122-S403
Field: class. Source value: ΔTm. Ranges: bottom end: < -0.07 °C; midrange: ≥ -0.07 °C and < 0.4 °C; top end: ≥ 0.4 °C

The examples below pair each entry with its known result.
Which class is correct for the following compound? COC[C@@H](C)N[C@H]1CC[C@H](Nc2cc(-c3cccc(NCC4(C#N)CCOCC4)n3)c(Cl)cn2)CC1 midrange

Into which bin does this compound go? NC1(c2ccc(-c3nc4c(O)ccnn4c3-c3ccccc3)cc2)CCC1 top end

Hi, small favor: classify O=S(=O)(Nc1ccc(C(O)(C(F)(F)F)C(F)(F)F)cc1)c1cccs1 by its ΔTm when you get a moment. top end

Lab log: COc1cc(-c2cn[nH]c2)ccc1C(=O)Nc1ccc2c(c1)CCNCC2 — assign ΔTm category midrange

Pick a category. Item: CC(C)[C@H](CO)Nc1nc(Nc2ccc(C(=O)O)c(Cl)c2)c2ncn(C(C)C)c2n1 top end

Would you kindly look at the next entry?
Lab note: which band did CN1CC(=O)N(C)c2cnc(Nc3ccc(NC(=O)Nc4cccc(C(=O)O)c4)cc3)nc21 land in? top end

----------
studySystem: Glycogen synthase kinase-3 beta (Homo sapiens) (UniProt P49841)
conditionSet: Compound concentration 20.0 uM, Protein concentration 2.0 uM, Result type QC Liability
endpoint: ΔTm (°C)
Numbers only, in °C.

As a guide, the following entries are already answered.
Quick one: ΔTm of CC(=O)c1ccc2c(c1)/C(=C(/NC1CCN(C)CC1)c1ccc3c(c1)OCO3)C(=O)N2 ? 15.5

Request the reported ΔTm associated with COc1nc2ccc([C@@](O)(c3ccccc3)C3CCN(C(C)=O)CC3)cc2c(Cl)c1Cc1ccc(-n2cccn2)cc1 -3.26

// returns reported ΔTm for input CC(C)(C)NC(=O)c1cncn1C1CCN(c2ccc(-c3nnc(C(F)(F)F)o3)cn2)CC1 -0.09

// each listed compound needs a value for ΔTm
1. Cc1cccc(CC(=O)N2CCc3c2ccc(-c2cn(C)c4ncnc(N)c24)c3F)n1
2. O=C(O)c1ccc(OCCCc2ccc(OCCCCOC3CCCCC3)cc2)c(C(=O)NC2CCCC(C(=O)O)C2)c1 (centres undefined)
3. CC1CN(CC(=O)N2CC(C)(C)c3nc(CO)c(Cc4ccc(F)cc4)cc32)C(CN2CCOCC2C)CN1 (centres undefined)
4. CC(C)(C)c1cnc(CSc2cnc(NC(=O)C3CCNCC3)s2)o1
5. COc1cc(-c2cncc(-c3ccc(N4CCN(C(C)C)CC4)cc3)c2C)cc(F)c1C(N)=O
6. O=C(CNC(=O)c1ccc(-c2ccccc2)cc1)NC1CCCc2ccccc21 (centres undefined)

-0.92
-0.84
-1.07
8.72
1.06
-2.76

----------
studySystem: Casein kinase I isoform delta (Homo sapiens) (UniProt P48730)
Sequence (P48730 whole entry, looked up, canonical isoform): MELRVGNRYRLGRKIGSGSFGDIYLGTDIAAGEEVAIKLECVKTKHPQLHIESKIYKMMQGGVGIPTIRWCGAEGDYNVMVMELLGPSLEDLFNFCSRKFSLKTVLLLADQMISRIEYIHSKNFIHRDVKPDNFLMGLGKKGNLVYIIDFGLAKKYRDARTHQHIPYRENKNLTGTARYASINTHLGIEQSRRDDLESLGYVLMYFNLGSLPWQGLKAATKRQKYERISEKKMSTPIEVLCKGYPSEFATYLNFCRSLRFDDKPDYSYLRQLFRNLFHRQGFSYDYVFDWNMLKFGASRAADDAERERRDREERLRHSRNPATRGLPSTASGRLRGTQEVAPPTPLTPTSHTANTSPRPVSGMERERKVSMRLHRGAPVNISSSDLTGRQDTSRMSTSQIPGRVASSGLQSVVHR
conditionSet: Compound concentration 20.0 uM, Protein concentration 2.0 uM, Result type QC Liability
Description: Thermal Shift Assay. Domain: start/stop: M1-K294
endpoint: ΔTm

Below is a list of molecules. For each, state its recorded ΔTm.
1. Cc1sc(C(=O)c2cncnc2N[C@@H]2C[C@H](COS(N)(=O)=O)[C@@H](O)C2)cc1[C@@H]1NCCc2ccc(Cl)cc21
2. CCn1c(=O)c2c(C)c(C(=O)N3CCC(O)CC3)sc2n(CCC(F)(F)F)c1=O

["-0.59 °C", "0.3 °C"]

----------
studySystem: Glycogen synthase kinase-3 beta (Homo sapiens)
conditionSet: Compound concentration 20.0 uM, Protein concentration 2.0 uM, Result type QC Liability
endpoint: ΔTm (°C)
Give bare numbers, in °C.

Record lookup: for Glycogen synthase kinase-3 beta (Homo sapiens), what ΔTm belongs to C[C@H](NC(=O)c1cnc2n1[C@](C)(Cc1ccc(C#N)cc1)C(=O)N2c1cc(Cl)c(F)c(Cl)c1)C(=O)NC1(c2ccccn2)CC1 ? -3.42

What value of ΔTm on Glycogen synthase kinase-3 beta (Homo sapiens) does Cc1nccn1-c1ccc(Sc2cccc(C3(C(N)=O)CCOCC3)c2)cc1 have? 0.36

API: value(readout=ΔTm, system=Glycogen synthase kinase-3 beta (Homo sapiens)) for record NS(=O)(=O)c1ccc(Nc2nc(OCC3CCCCC3)c3nc[nH]c3n2)cc1 5.83

Answer for every listed entry: what is its ΔTm? The entries follow.
1. COc1cc(C)c(S(=O)(=O)N(C)CCOCC(=O)N(C)[C@H]2CCC[C@@H](N3CCN(C)CC3)C2)c(C)c1
2. CCc1ccc(N(CC(C)C)S(=O)(=O)c2ccc(OCC3CCOCC3)c(CO)c2)cc1
3. Nc1ncnc2c1ccn2[C@@H]1O[C@H]([C@@H](O)c2ccccc2)[C@@H](O)[C@H]1O
4. Cn1cc(-c2ccc(-c3cncc(Cl)c3N3CCC4(CCNC4=O)CC3)cc2)cn1
5. COc1cc(C(N)=O)ccc1Nc1ncc2c(n1)N(CCC(C)C)[C@H](C)C(=O)N2C
6. O=C(Cc1ccccc1)Nc1nnc(N2C[C@H]3C[C@@H]2CN3c2cccnn2)s1

1. -0.91
2. 0
3. -0.88
4. 6.99
5. 0.01
6. -0.33
